From: patent US6723716B1

- Test system: S. aureus ATCC 13709 (Smith diffuse)
- Method Summary: Murine lethal bacteremic peritonitis (septicemia) efficacy
- Format: in vivo, mice
- Study Conditions: Staphylococcus aureus, ATCC13709; mice, S. aureus ATCC 13709 i.p.; s.c. at 0 and 2 h post-challenge; probit method
We begin with a simple list: items and their reported ED50.
Provide only the numeric value, understood in mg/kg.

# annotated cases, reported ED50 shown
[
  {
    "Molecule": "NCCSCc1ccncc1SC1=C(C(=O)O)N2C(=O)[C@@H](NC(=O)/C(=N\\O)c3nc(N)sc3Cl)[C@H]2SC1 [Cmpd 21]",
    "Target Of Assay": "S. aureus ATCC 13709 (Smith diffuse)",
    "Property Measured": "ED50",
    "Unit Abbrev": "mg/kg",
    "Readout Value": 0.79
  },
  {
    "Molecule": "NCCSCc1cnccc1SC1=C(C(=O)O)N2C(=O)[C@@H](NC(=O)/C(=N\\O)c3nsc(N)n3)[C@H]2SC1 [Cmpd 18]",
    "Target Of Assay": "S. aureus ATCC 13709 (Smith diffuse)",
    "Property Measured": "ED50",
    "Unit Abbrev": "mg/kg",
    "Readout Value": 0.46
  },
  {
    "Molecule": "NCCSCc1cnccc1SC1=C(C(=O)O)N2C(=O)[C@@H](NC(=O)/C(=N\\O)c3nc(N)sc3Cl)[C@H]2SC1 [Cmpd 20]",
    "Target Of Assay": "S. aureus ATCC 13709 (Smith diffuse)",
    "Property Measured": "ED50",
    "Unit Abbrev": "mg/kg",
    "Readout Value": 1
  },
  {
    "Molecule": "NCCSCc1ncsc1SC1=C(C(=O)O)N2C(=O)[C@@H](NC(=O)/C(=N\\O)c3cccc(N)n3)[C@H]2SC1 [Cmpd 23]",
    "Target Of Assay": "S. aureus ATCC 13709 (Smith diffuse)",
    "Property Measured": "ED50",
    "Unit Abbrev": "mg/kg",
    "Readout Value": 0.39
  },
  {
    "Molecule": "NCCSCc1cnccc1SC1=C(C(=O)O)N2C(=O)[C@@H](NC(=O)/C(=N\\O)c3cccc(N)n3)[C@H]2SC1 [Cmpd 24]",
    "Target Of Assay": "S. aureus ATCC 13709 (Smith diffuse)",
    "Property Measured": "ED50",
    "Unit Abbrev": "mg/kg",
    "Readout Value": 0.76
  },
  {
    "Molecule": "NCCSCc1ncccc1SC1=C(C(=O)O)N2C(=O)[C@@H](NC(=O)/C(=N\\O)c3nsc(N)n3)[C@H]2SC1 [Cmpd 17]",
    "Target Of Assay": "S. aureus ATCC 13709 (Smith diffuse)",
    "Property Measured": "ED50",
    "Unit Abbrev": "mg/kg",
    "Readout Value": 0.39
  }
]

Proceed to the following item.
Returns the measured ED50 for the input molecule. Input: NCCSCc1nc(N)sc1SC1=C(C(=O)O)N2C(=O)[C@@H](NC(=O)/C(=N\O)c3nc(N)sc3Cl)[C@H]2SC1 [Cmpd 3]
0.39
